- Species on record: Rattus norvegicus
- PROTOCOL_SUMMARY: Open TG-GATES - Regimen: Single
- Type: toxicity, organism-based, Sprague-Dawley
- Design: regimen Single, gender Male, age 6 weeks
- SETTINGS: in vivo, po, 0 mg/kg, 24 h, tissue Plasma, route gavage, dose level Control
Give measured Cl for each item. Keep answers brief.
Number in meq/L, nothing else.

Record summary for Cc1ccc2cc3c(ccc4ccccc43)c3c2c1CC3 [3-METHYLCHOLANTHRENE] : reported Cl = 103

Record summary for C[C@H]1O[C@H](O[C@H]2[C@H](O)[C@@H](O)[C@@H](O[C@H]3[C@H](O)[C@@H](O)C(O)O[C@@H]3CO)O[C@@H]2CO)[C@H](O)[C@@H](O)[C@@H]1N[C@H]1C=C(CO)[C@@H](O)[C@H](O)[C@H]1O (some centres undefined) [ACARBOSE] : reported Cl = 103.8

Record summary for C=C(C)[C@H]1Cc2c(ccc3c2O[C@@H]2COc4cc(OC)c(OC)cc4[C@@H]2C3=O)O1 [ROTENONE] : reported Cl = 103.8

Record summary for CCOC(=O)C(C)(C)Oc1ccc(Cl)cc1 [CLOFIBRATE] : reported Cl = 102.2

Record summary for Cc1cccc(C)c1OCC(C)N (centres undefined) [MEXILETINE] : reported Cl = 107

Record summary for OCCN1CCN(CCCN2c3ccccc3Sc3ccc(C(F)(F)F)cc32)CC1 [FLUPHENAZINE] : reported Cl = 104.2

Record summary for C[C@H]1C(=O)O[C@@H]2CCN3CC=C(COC(=O)[C@](C)(O)[C@]1(C)O)[C@H]23 [MONOCROTALINE] : reported Cl = 105

Record summary for O=[N+]([O-])c1ccc(O)c([N+](=O)[O-])c1 [2,4-DINITROPHENOL] : reported Cl = 103.2

Record summary for Cn1cc[nH]c1=S [METHIMAZOLE] : reported Cl = 104.6
